Data origin: patent US11504441B2

protocol.notes: in vivo
measurement.setup: male, NODSCID 1L2RγKO, mouse, iv, total radioactivity, Fat uptake
reported.metric: tissue uptake at 1 h (%ID/g)

compound	reported.metric	numeric.value
O=C(O)C[C@H](NC(=O)N[C@@H](CCCCNC(=O)[C@H](Cc1c2ccccc2cc2ccccc12)NC(=O)[C@H]1CC[C@H](CNC(=O)CN2CCN(CC(=O)O)CCN(CC(=O)O)CCN(CC(=O)O)CC2)CC1)C(=O)O)C(=O)O [68Ga-HTK03161, metal not drawn]	tissue uptake at 1 h	0.15
O=C(O)CCC[C@H](NC(=O)N[C@@H](CCCCNC(=O)[C@H](Cc1c2ccccc2cc2ccccc12)NC(=O)[C@H]1CC[C@H](CNC(=O)CN2CCN(CC(=O)O)CCN(CC(=O)O)CCN(CC(=O)O)CC2)CC1)C(=O)O)C(=O)O [68Ga-HTK03149, metal not drawn]	tissue uptake at 1 h	0.22
O=C(O)CN1CCN(CC(=O)O)CCN(CC(=O)NC[C@H]2CC[C@H](C(=O)N[C@@H](Cc3c4ccccc4cc4ccccc34)C(=O)NCCCC[C@H](NC(=O)N[C@@H](C[C@H](F)C(=O)O)C(=O)O)C(=O)O)CC2)CCN(CC(=O)O)CC1 [68Ga-HTK04040, metal not drawn]	tissue uptake at 1 h	0.6
O=C(O)CSC[C@H](NC(=O)N[C@@H](CCCCNC(=O)[C@H](Cc1c2ccccc2cc2ccccc12)NC(=O)[C@H]1CC[C@H](CNC(=O)CN2CCN(CC(=O)O)CCN(CC(=O)O)CCN(CC(=O)O)CC2)CC1)C(=O)O)C(=O)O [68Ga-HTK03177, metal not drawn]	tissue uptake at 1 h	0.09
O=C(O)CCCCC(NC(=O)N[C@@H](CCCCNC(=O)[C@H](Cc1c2ccccc2cc2ccccc12)NC(=O)[C@H]1CC[C@H](CNC(=O)CN2CCN(CC(=O)O)CCN(CC(=O)O)CCN(CC(=O)O)CC2)CC1)C(=O)O)C(=O)O (single isomer, unassigned) [68Ga-HTK03189A, metal not drawn]	tissue uptake at 1 h	0.18
